Experiment: S. cerevisiae RM11-1a growth modifiers, primary screen, strain RM11-1a, OD600, basal, 24 h (AID 1177);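 further: cultures grown under basal conditions with no added stressor; test concentration not given here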
Settings: OD600, 24 h, higher = more signal, called active from +8 up or from −8 down
For each entry below, report its z-score value.
Format: numeric value only, no unit, no commentary.

Suppose we examine the compound CN(C)CCCCNC(=O)[C@H]1C[C@H]2C(=O)N[C@@H](CCCCN(C)C)C(=O)N2[C@H]1c1ccc(O)cc1 ; what z-score value has been reported?
-1.52

Suppose we examine the compound COC(=O)C1=CC(c2ccc(CO)cc2)=CC(C2CC2)N(Cc2cc3c(cc2Br)OCO3)C=C1C(=O)OC (centres undefined) ; what z-score value has been reported?
-0.069

Suppose we examine the compound CC[C@@H](O[Si](C#C[Si](C(C)C)(C(C)C)C(C)C)(C(C)C)C(C)C)c1cn([C@H](CO)Cc2ccccc2)nn1 ; what z-score value has been reported?
0.959

Suppose we examine the compound COC(=O)C1(CC(C)C)C=C2C(=C(C)C(=O)C2C)CN1 (centres undefined) ; what z-score value has been reported?
0.386

Suppose we examine the compound COC(=O)[C@@]1(Cc2ccc(F)cc2)[C@H]2c3cc(C(=O)N4CCCC4)n(C[C@H](O)CO)c3C[C@H]2CN1C(=O)c1ccccc1 ; what z-score value has been reported?
-0.108

Suppose we examine the compound COCCOC(=O)N1C(=O)[C@@]2(c3cc(C#CCNC(N)=O)ccc31)[C@H](C(=O)Nc1nc3ccccc3s1)[C@H]1C(=O)O[C@H](c3ccccc3)[C@H](c3ccccc3)N1[C@@H]2c1ccc(O)cc1 ; what z-score value has been reported?
1.37

Suppose we examine the compound COc1c(C)cc(-c2cc3c(c(CCc4ccccc4)n2)[Si](C(C)C)(C(C)C)O[C@H]3c2ccccc2)cc1C ; what z-score value has been reported?
1.42

Suppose we examine the compound COC(=O)[C@@]1(Cc2ccc(F)cc2)[C@H]2c3cc(C(=O)N4CCCC4)n(Cc4ccc(C(F)(F)F)nc4)c3C[C@H]2CN1C(=O)c1ccccc1 ; what z-score value has been reported?
1.09

Suppose we examine the compound CC(C)(C)OC(=O)CC[C@]1(C(=O)N2CCOCC2)COC(c2ccc(OCCCO)cc2)=N1 ; what z-score value has been reported?
0.568

Suppose we examine the compound O=C1C2C=CC(C(O)C3CC=CCC3)N(Nc3ccc([N+](=O)[O-])cc3)C2C(=O)N1c1ccccc1 (centres undefined) ; what z-score value has been reported?
-0.0935

Suppose we examine the compound O=C1O[C@@H](c2ccccc2)[C@@H](c2ccccc2)N2[C@@H](c3ccc(OCCO)cc3)[C@]3(C(=O)Nc4ccc(C#CC5=CCCCC5)cc43)[C@@H](C(=O)Nc3nc4ccccc4s3)[C@H]12 ; what z-score value has been reported?
2.53

Suppose we examine the compound C=CCC(OC(C)=O)[C@@H]1[C@@H](N(Cc2ccc(-c3ccccc3)cc2)C(=O)Cc2ccc(OC)cc2)c2cc(OCCCO)ccc2N1C(=O)Cc1ccc(OC)cc1 (some centres undefined) ; what z-score value has been reported?
-0.565

Suppose we examine the compound CCCCC(=C=CC[C@@H](O)c1ccc(OCCO)cc1)CCO ; what z-score value has been reported?
0.271

Suppose we examine the compound COc1cccc(C)c1NC(=O)O[C@H]1[C@H](OC(=O)Nc2ccccc2-c2ccccc2)[C@@H](OC(=O)Nc2ccccc2-c2ccccc2)[C@@H](OC)O[C@@H]1CO ; what z-score value has been reported?
4.5

----------
Assay: mitochondrial membrane potential change in A549 cells, profiling panel, cell-based, JC-1 fluorescence, basal, 24 h, 100 nL (AID 1138);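 further: A549 lung adenocarcinoma cells under basal conditions with no added stimulus; test concentration not given here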
Conditions: higher = more signal
Label class 1 for high-side z-score (at or above -0.01) and class 0 for low-side z-score (below it).

Dear colleague, could you confirm whether CN(C)CCCCCCNC(=O)[C@@H]1C[C@@H]2C(=O)N[C@@H](CCCC[N+](C)(C)C)C(=O)N2[C@@H]1c1cccc(OCCO)c1 has z-score at or above -0.01?
class 1

Dear colleague, could you confirm whether COc1ccc([Si](C)(C)[C@@H]2[C@@H](CC(=O)N3CCC[C@H]3CO)O[C@]3(C(=O)N(Cc4cccc(N5C(=O)c6cccc7cccc5c67)c4)c4ccccc43)[C@H]2C)cc1 has z-score at or above -0.01?
class 0

Dear colleague, could you confirm whether COc1cccc(C)c1NC(=O)O[C@H]1[C@H](OC(=O)Nc2ccccc2-c2ccccc2)[C@@H](OC(=O)Nc2ccccc2-c2ccccc2)[C@@H](OC)O[C@@H]1CO has z-score at or above -0.01?
class 0

Dear colleague, could you confirm whether COCCOC(=O)N1C(=O)[C@@]2(c3cc(C#CCNC(N)=O)ccc31)[C@H](C(=O)Nc1nc3ccccc3s1)[C@H]1C(=O)O[C@H](c3ccccc3)[C@H](c3ccccc3)N1[C@@H]2c1ccc(O)cc1 has z-score at or above -0.01?
class 0

Dear colleague, could you confirm whether CC(C)(C)OC(=O)CC[C@@]1(C(=O)N2CCOCC2)N=C(c2ccc(OCCCO)cc2)O[C@@H]1c1ccccc1CN=[N+]=[N-] has z-score at or above -0.01?
class 1

Dear colleague, could you confirm whether CC(CO)N1C(=O)[C@@H]2[C@H]3C(=O)OCC=C[C@H]3OC23C=CCN(c2ccc4ccccc4c2)C(=O)[C@@H]13 (some centres undefined) has z-score at or above -0.01?
class 1

Dear colleague, could you confirm whether COCCCNC(=O)[C@]1(Cc2ccccc2N=[N+]=[N-])N=C(c2ccc(OCCCO)cc2)O[C@@H]1c1ccccc1 has z-score at or above -0.01?
class 1

Dear colleague, could you confirm whether COCCCNC(=O)[C@]1(Cc2ccccc2CN=[N+]=[N-])N=C(c2ccc(OCCCO)cc2)O[C@@H]1c1ccccc1N=[N+]=[N-] has z-score at or above -0.01?
class 1

Dear colleague, could you confirm whether CCOC(=O)C1=CCC(c2ccncc2)N(S(=O)(=O)c2ccc(C)cc2)C1 (centres undefined) has z-score at or above -0.01?
class 0

Dear colleague, could you confirm whether Cc1ccc(S(=O)(=O)N2[C@@H](c3ccccc3)C(C(=O)O)=C[C@H]2C(C)(C)C)cc1 has z-score at or above -0.01?
class 0

Dear colleague, could you confirm whether C=CC[C@]1(C(=O)NCCN2CCOCC2)N=C(c2ccc(OCCCO)cc2)O[C@H]1c1ccccc1 has z-score at or above -0.01?
class 1

Dear colleague, could you confirm whether COc1ccc([Si](C)(C)[C@@H]2[C@@H](CC(=O)N3Cc4ccccc4C[C@H]3CO)O[C@]3(C(=O)N(Cc4ccc(I)cc4)c4ccccc43)[C@H]2C)cc1 has z-score at or above -0.01?
class 0

Dear colleague, could you confirm whether COC(=O)[C@@]1(Cc2ccc(F)cc2)[C@H]2c3cc(C(=O)N(C)C)n(Cc4cccc5ccccc45)c3C[C@H]2CN1C(=O)c1ccccc1 has z-score at or above -0.01?
class 1

Dear colleague, could you confirm whether COC(=O)[C@H]1N=C(c2ccc(OCCCO)cc2)O[C@H]1c1ccccc1N=[N+]=[N-] has z-score at or above -0.01?
class 0

----------
For each entry below, report its composite z-score value.
Assay: small-molecule microarray binders of probe aEGFR, primary screen, biochemical, biotinylated probe, 635/667 nm fluorescence (AID 1097);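 further: probe is a biotinylated anti-EGFR antibody binding compounds printed on slides; score combines fluorescence near 667 nm and signal to noise of each spot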
Conditions: higher = more signal
Format: numeric value only, no unit, no commentary.

Suppose we examine the molecule COc1ccc([Si](C)(C)[C@H]2[C@H](CC(=O)N(CCO)Cc3ccccc3)O[C@@]3(C(=O)N(c4ccccc4)c4ccccc43)[C@@H]2C)cc1 ; what composite z-score value has been reported?
-0.13

Suppose we examine the molecule COC(=O)[C@@]1(Cc2ccc(F)cc2)[C@H]2c3cc(C(=O)N4CCCC4)n(Cc4ccc(OC(F)(F)F)cc4)c3C[C@H]2CN1C(=O)c1ccccc1 ; what composite z-score value has been reported?
-0.0472

Suppose we examine the molecule COc1cc2c(cc1O)C(C)N(Cc1sc3ccccc3c1Cl)CC2 (stereo not given) ; what composite z-score value has been reported?
-0.2

Suppose we examine the molecule C[N+](C)(C)CCCC[C@@H]1NC(=O)[C@H]2C[C@@H](C(=O)NCCCCCN)[C@@H](c3ccc(O)cc3)N2C1=O ; what composite z-score value has been reported?
0.152

Suppose we examine the molecule COc1ccc([Si](C)(C)[C@H]2[C@H](CC(=O)N(CCO)Cc3ccccc3)O[C@@]3(C(=O)N(Cc4cccc(N5CCCCC5=O)c4)c4ccccc43)[C@@H]2C)cc1 ; what composite z-score value has been reported?
-0.045

Suppose we examine the molecule CO[C@H]1O[C@H](CO)[C@@H](OC(=O)Nc2ccccc2)[C@@H]2OC(=O)[C@@H](Cc3ccccc3)C/C=C/C[C@H](Cc3ccccc3)C(=O)O[C@@H]12 ; what composite z-score value has been reported?
-0.0697

Suppose we examine the molecule COC(=O)[C@@]1(Cc2ccc(OC)cc2)[C@H]2c3cc(C(=O)N(C)C)n(Cc4c(CO)[nH]cc(C)c4=O)c3C[C@H]2CN1C(=O)c1ccccc1 ; what composite z-score value has been reported?
0.215

Suppose we examine the molecule CCCCCN1CC=CC23O[C@@H]4/C=C\CCCOC(=O)C4[C@H]2C(=O)N(CCCCCO)[C@@H]3C1=O (stereo not given in full) ; what composite z-score value has been reported?
-0.175

Suppose we examine the molecule CC(=O)NCCCC[C@@H]1NC(=O)[C@H]2C[C@@H](C(=O)O)[C@@H](c3cccc(OCCO)c3)N2C1=O ; what composite z-score value has been reported?
0.189

Suppose we examine the molecule [N-]=[N+]=Nc1ccccc1C[C@]1(C(=O)N2CCCCC2)N=C(c2ccc(OCCCO)cc2)O[C@H]1c1ccccc1 ; what composite z-score value has been reported?
0.279

Suppose we examine the molecule C#CCN(C(=O)OC(C)(C)C)[C@H](CO)c1ccccc1 ; what composite z-score value has been reported?
-0.198

Suppose we examine the molecule COc1cccc(C)c1NC(=O)O[C@H]1[C@H](OC(=O)Nc2ccccc2-c2ccccc2)[C@@H](OC(=O)Nc2ccccc2-c2ccccc2)[C@@H](OC)O[C@@H]1CO ; what composite z-score value has been reported?
0.0059

Suppose we examine the molecule CC(C)C(=C=CC[C@H](O)c1cccc(OCCO)c1)C[C@H](O)c1ccccn1 ; what composite z-score value has been reported?
-0.157

Suppose we examine the molecule COC(=O)[C@H](Cc1ccccc1)N1CC(C)(OC)O[C@@H](Cc2ccccc2)[C@H]1/C=C/C1CC1 (stereo not given in full) ; what composite z-score value has been reported?
-0.15

Suppose we examine the molecule CC(C)(C)OC(=O)CC[C@]1(C(=O)N2CCOCC2)COC(c2ccc(OCCCO)cc2)=N1 ; what composite z-score value has been reported?
0.94

Suppose we examine the molecule [N-]=[N+]=NCc1ccccc1[C@H]1OC(c2ccc(OCCCO)cc2)=N[C@@]1(CCS(=O)(=O)c1ccccc1)C(=O)NCCN1CCOCC1 ; what composite z-score value has been reported?
0.214

Suppose we examine the molecule CCCCC(=C=CC[C@@H](O)c1ccccc1OCCO)C[C@@H](O)c1ccccn1 ; what composite z-score value has been reported?
-0.0238

Suppose we examine the molecule C=C(COC)C(=O)CC[C@H](OC(C)=O)c1ccc(CO)o1 ; what composite z-score value has been reported?
-0.067

Suppose we examine the molecule COc1ccc(C(=O)Nc2ccc(CN3C(=O)[C@@]4(O[C@@H](CC(=O)N(CCO)Cc5ccccc5)[C@H]([Si](C)(C)c5ccc(OC)cc5)[C@H]4C)c4ccccc43)cc2)cc1 ; what composite z-score value has been reported?
0.0326

Suppose we examine the molecule C=CC[C@H](O)c1ccc(O)c2ccccc12 ; what composite z-score value has been reported?
-0.0151

Suppose we examine the molecule CN1C(=O)C2C=CC(C(O)COCc3ccccc3)N(Nc3ccc([N+](=O)[O-])cc3[N+](=O)[O-])C2C1=O (stereo not given) ; what composite z-score value has been reported?
-0.146

Suppose we examine the molecule COc1ccc(CCNC(=O)[C@@H]2c3ccccc3C(=O)N(Cc3cc(F)cc(C(F)(F)F)c3)[C@H]2c2ccc(CO)cc2)cc1 ; what composite z-score value has been reported?
0.179

Suppose we examine the molecule CC(C)(C)OC(=O)CC[C@@]1(C(N)=O)N=C(c2ccc(OCCCO)cc2)O[C@@H]1c1ccccc1CN=[N+]=[N-] ; what composite z-score value has been reported?
0.756

Suppose we examine the molecule C=CCNC(=O)[C@@H]1[C@H]2C(=O)O[C@H](c3ccccc3)[C@H](c3ccccc3)N2[C@H](c2ccc(OCCO)cc2)[C@@]12C(=O)Nc1ccc(C#CC3=CCCCC3)cc12 ; what composite z-score value has been reported?
0.0526

Suppose we examine the molecule O=C1OC[C@@H](c2ccccc2)n2cc(/C=C/c3ccccc3)cc21 ; what composite z-score value has been reported?
-0.108

Suppose we examine the molecule COC(=O)[C@@]1(Cc2ccc(F)cc2)[C@H]2c3cc(C(=O)N(C)C)n(Cc4cccc5ccccc45)c3C[C@H]2CN1C(=O)c1ccccc1 ; what composite z-score value has been reported?
0.0776

Suppose we examine the molecule CCCNC(=O)[C@@]1(Sc2ccc(C)cc2)CC(=O)N(Cc2cc(C(F)(F)F)cc(C(F)(F)F)c2)[C@@H]1c1ccc(CO)cc1 ; what composite z-score value has been reported?
-0.165

Suppose we examine the molecule COCCCNC(=O)[C@@]1(Cc2ccccc2I)c2ccccc2C(=O)N(C2CCCCC2)[C@H]1c1ccc(CO)cc1 ; what composite z-score value has been reported?
-0.0512

Suppose we examine the molecule O=C1C[C@@](C(=O)NCC(F)(F)F)(c2ccc([N+](=O)[O-])cc2)[C@@H](c2ccc(CO)cc2I)N1CC12CC3CC(CC(C3)C1)C2 ; what composite z-score value has been reported?
-0.206

Suppose we examine the molecule [N-]=[N+]=NCc1ccccc1C[C@@]1(C(N)=O)N=C(c2ccc(OCCCO)cc2)O[C@@H]1c1ccccc1N=[N+]=[N-] ; what composite z-score value has been reported?
0.0766
